Just for reference, ChEMBL document CHEMBL1125606 is where these values come from.

# Species: Rattus norvegicus
# METHOD: Percent control measured by evaluating the inhibition of 3 nM [125I]PhTX-343-lysine binding to glutamate receptors in rat cortical membranes
# Type: cell membranes
# Design: scale not given: the % may be the effect or the level left
# EXPERIMENTAL_SETUP: Membrane
Mark 0.0 for Activity values under 90%, and 1.0 for everything at or above.

Would you say "CCCC(=O)N[C@@H](Cc1ccc(O)cc1)C(=O)NCCCCNCCCNCCCN" shows Activity at minimum 90%?
0.0

----------
# Species on record: Rattus norvegicus
# METHOD: Percent control measured by evaluating the inhibition of 3 nM [125I]PhTX-343-lysine binding to glutamate receptors in rat cortical membranes
# Type: cell membranes
# Design: scale not given: the % may be the effect or the level left
# EXPERIMENTAL_SETUP: Membrane
PROPERTY_MEASURED: Activity (%)
State the answer as a number, implicitly in %.

As a guide, the following entries are already answered.
- COMPOUND: "O=[N+]([O-])c1cc2nc(O)c(O)nc2cc1[N+](=O)[O-]"
  Activity [%]: 102
- COMPOUND: "NCC(=O)O"
  Activity [%]: 109
- COMPOUND: "CNC(CCC(=O)O)C(=O)O (stereo not given)"
  Activity [%]: 96
- COMPOUND: "C=C(C)[C@H]1CN[C@H](C(=O)O)[C@H]1CC(=O)O"
  Activity [%]: 103
- COMPOUND: "c1ccc(C2(N3CCCCC3)CCCCC2)cc1"
  Activity [%]: 81
- COMPOUND: "NC(CCCP(=O)(O)O)C(=O)O (stereo not given)"
  Activity [%]: 94

Give the measured Activity for "NCCCNCCCCNCCCN"
14.4

Give the measured Activity for "N[C@@H](CCC(=O)O)C(=O)O"
99

Give the measured Activity for "N[C@@H](Cn1oc(=O)[nH]c1=O)C(=O)O"
104

Give the measured Activity for "C[C@]12N[C@H](Cc3ccccc31)c1ccccc12"
92
